Protocol Notes: Tanguay_ZF_120hpf_EYE_legacy: (Legacy) Oregon State University Tanguay Lab 120 Hour Post-fertilization zebrafish Assay for Eye Malformation (AID 2283636);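 further: binary presence or absence of eye malformation scored by brightfield in 120 hpf larvae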
Results filed as inconclusive are left out. Calls of active or inactive are those of the source. How the source made its calls: active means hit-call score of the fitted dose curve at least 0.9, where 1 is the maximum; inconclusive means response in the unintended direction; inactive means score below 0.9.
Form entry, call: pick from active, inactive

Just curious, what result did CC(=O)NC1(c2cccc(F)c2)CCN(CC[C@@]2(c3ccc(Cl)c(Cl)c3)CN(c3ccccc3)C(=O)CO2)CC1 get here?
inactive

Then this compound: CCCCCCCCOC(=O)CCCCCCCCC(=O)OCCCCCCCC
inactive

Then this compound: CCC(C)(C)C1CCC(O)CC1 (stereo not given)
inactive

Then this compound: CC#C[C@]1(O)CC[C@H]2[C@@H]3CCC4=CC(=O)CCC4=C3[C@@H](c3ccc(N(C)C)cc3)C[C@@]21C
inactive

Then this compound: N#C[C@@H]1CC(F)(F)CN1C(=O)CNC1CC2CCC(C1)N2c1ncccn1 (stereo not given in full)
inactive

Then this compound: CCCCCCCCCCCCN1CCCC1=O
inactive

Then this compound: CC1=C(/C=C/C(C)=C/C=C/C(C)=C/C(=O)O)C(C)(C)CCC1
active

Then this compound: O=c1c(-c2ccc(O)cc2)coc2cc(O)ccc12
inactive

Then this compound: O=[N+]([O-])c1ccc(O)cc1
inactive

Then this compound: CN1CCN(c2ccccc2/C=C2\SCCN(c3ccc(Cl)c(Cl)c3)C2=O)CC1
inactive

Then this compound: Cc1cc(CCN2CCN(c3nsc4ccccc34)CC2)cc2c1NC(=O)CC2(C)C
active

Then this compound: CCCCC(CC)COC(=O)CCCCC(=O)OCC(CC)CCCC (stereo not given)
inactive

Then this compound: Cc1oc(-c2ccccc2)nc1CCOc1ccc(C[C@H](Nc2ccccc2C(=O)c2ccccc2)C(=O)O)cc1
inactive

Then this compound: CCC(=C(c1ccc(O)cc1)c1ccc(OCCN(C)C)cc1)c1ccccc1
inactive

Then this compound: CC(C)(C)c1cc(C(C)(C)C)c(O)c(C(C)(C)C)c1
inactive

Then this compound: CCCCCCCC(=O)O
inactive

Then this compound: CCN(CC)CCNc1ccc(CNC=O)c2sc3ccc(OC)cc3c(=O)c12
inactive

Then this compound: c1ccc2c(c1)ccc1ccccc12
inactive

Then this compound: CCc1nn(C2CCCCC2)c2cc(C3(C#N)CCC(C(=O)O)CC3)ccc12 (stereo not given)
active

Then this compound: CC(C)(C)CC(C)(C)c1ccc(O)c(-n2nc3ccccc3n2)c1
inactive

Then this compound: COCC(C)O (stereo not given)
inactive

Then this compound: CCc1ccc(CCOc2ccc(CC3SC(=O)NC3=O)cc2)nc1 (stereo not given)
inactive

Then this compound: CC(O)CO (stereo not given)
inactive

Then this compound: CN1CCC[C@H]1c1cccnc1
inactive

Then this compound: COC(=O)CCCCC(=O)OC
inactive

Then this compound: CC(C)(C)c1ccc(O)c(C(C)(C)C)c1
inactive

Then this compound: Oc1cc2ccccc2c2ccccc12
active

Then this compound: c1ccc2cc3c(ccc4ccccc43)cc2c1
active

Then this compound: NC(=O)N(O)[C@@H]1C=C[C@H](Oc2cccc(Oc3ccc(F)cc3)c2)C1
inactive

Then this compound: CC(C)CCCCCCOC(=O)CCCCC(=O)OCCCCCCC(C)C
inactive

Then this compound: CCCCC(CC)COC(=O)CCCCC(=O)OCc1ccccc1 (stereo not given)
inactive

Then this compound: CCOC(=O)CC(O)(CC(=O)OCC)C(=O)OCC
inactive

Then this compound: ClC1=C(Cl)C(Cl)(Cl)C(Cl)=C1Cl
inactive

Then this compound: OC1CCC(C2CCCCC2)CC1 (stereo not given)
inactive

Then this compound: O=C(O)Cc1cc(I)c(Oc2cc(I)c(O)c(I)c2)c(I)c1
active

* * *

Read-out: Pselectin, SELP (gene 6403)
Protocol Notes: BSK_4H_Pselectin: BioMAP Diversity Plus: 4H Assay for Pselectin Biomarker Activity (AID 2283026)
Protocol Conditions: primary human endothelial cells (HUVEC); actives raise or lower the signal
The source made the active and inactive calls. Rule for the calls: active = hit-call score of the fitted dose curve at least 0.9, where 1 is the maximum; inactive = score below 0.9.
Form entry, call: pick from Yes (active), No (inactive)

Just curious, what result did NC(=O)N1C(=O)C(C(=O)c2cc(Cl)cs2)c2cc(F)c(Cl)cc21 (stereo unspecified) get here?
Yes

Then this compound: COCC(C)OCC(C)O (stereo unspecified)
No

Then this compound: N#C[C@@H]1CC(F)(F)CN1C(=O)CNC1CC2CCC(C1)N2c1ncccn1 (stereo partly specified)
No

Then this compound: CC(C)(C)c1ccc(O)c(C(C)(C)C)c1
Yes

Then this compound: CCCCC(CC)COC(=O)CCCCC(=O)OCc1ccccc1 (stereo unspecified)
No

Then this compound: O=C(O)Cc1cc(I)c(Oc2cc(I)c(O)c(I)c2)c(I)c1
Yes

* * *

Read-out: TIMP metallopeptidase inhibitor 2 (TIMP2), TIMP2 (gene 7077)
Protocol Notes: BSK_KF3CT_TIMP2: BioMAP Diversity Plus: KF3CT Assay for TIMP metallopeptidase inhibitor 2 (TIMP2) Biomarker Activity (AID 2283071)
Protocol Conditions: primary human keratinocytes with fibroblasts; actives raise or lower the signal
Active and inactive are the calls of the source. Rule for the calls: active = hit-call score of the fitted dose curve at least 0.9, where 1 is the maximum; inactive = score below 0.9.
Form entry, call: pick from active, inactive

Just curious, what result did CCCCCCCCCCCCc1ccccc1S(=O)(=O)O get here?
active

Then this compound: CC(C)(C)c1ccc(O)c(C(C)(C)C)c1
active

Then this compound: CC#C[C@]1(O)CC[C@H]2[C@@H]3CCC4=CC(=O)CCC4=C3[C@@H](c3ccc(N(C)C)cc3)C[C@@]21C
inactive

Then this compound: CN1CCN(c2ccccc2/C=C2\SCCN(c3ccc(Cl)c(Cl)c3)C2=O)CC1
active

Then this compound: OCCC(F)(F)C(F)(F)C(F)(F)C(F)(F)C(F)(F)C(F)(F)F
inactive

Then this compound: CC(C)(C)c1cc(C(C)(C)C)c(O)c(C(C)(C)C)c1
inactive

Then this compound: O=C(O)c1ccccc1C(c1ccc(O)cc1)c1ccc(O)cc1
inactive

Then this compound: CCOC(=O)CC(O)(CC(=O)OCC)C(=O)OCC
inactive

Then this compound: CCc1nn(C2CCCCC2)c2cc(C3(C#N)CCC(C(=O)O)CC3)ccc12 (stereo unspecified)
active

Then this compound: CCCCCCCCCCCCCCCS(=O)(=O)Oc1ccccc1
inactive

Then this compound: CCCCOCCO
inactive

* * *

System Tested: Transcription factor E2F1 (Homo sapiens)
Protocol Notes: ATG_E2F_CIS: Attagene CIS-FACTORIAL HepG2 Assay for human E2F Transcription Factor 1 (AID 2282935)
Protocol Conditions: HepG2 Attagene cis-reporter, E2F reporter RNA transcripts; actives raise or lower the signal
Description: ATG_CIS is a cell-based, multiplexed-readout assay that uses HepG2, a human liver cell line, with measurements taken at 24 hours after chemical dosing in a 24-well plate.ATG_E2F_CIS is one of 52 assay component(s) measured or calculated from the ATG_CIS assay. […] This assay endpoint, ATG_E2F_CIS, was analyzed with bidirectional fitting relative to DMSO as the negative control and baseline of activity. […]
Calls of active or inactive are those of the source. The calls were made as follows: active = hit-call score of the fitted dose curve at least 0.9, where 1 is the maximum; inactive = score below 0.9.
Form entry, call: pick from active, inactive

Just curious, what result did CC#C[C@]1(O)CC[C@H]2[C@@H]3CCC4=CC(=O)CCC4=C3[C@@H](c3ccc(N(C)C)cc3)C[C@@]21C get here?
inactive

Then this compound: COC(=O)CCCCC(=O)OC
inactive

Then this compound: Cc1cc(C)c(O)c(C)c1
inactive

Then this compound: Nc1cccc2c(N)cccc12
inactive

Then this compound: CCCCCCCCOC(=O)CCCCCCCCC(=O)OCCCCCCCC
inactive

Then this compound: CCCCC(CC)COC(=O)CCCCC(=O)OCC(CC)CCCC (stereo not given)
inactive

Then this compound: OCCC(F)(F)C(F)(F)C(F)(F)C(F)(F)C(F)(F)C(F)(F)C(F)(F)C(F)(F)F
inactive

Then this compound: CC(=O)NC1(c2cccc(F)c2)CCN(CC[C@@]2(c3ccc(Cl)c(Cl)c3)CN(c3ccccc3)C(=O)CO2)CC1
inactive

Then this compound: Cc1ccc(S(=O)(=O)O)c(C)c1
inactive

Then this compound: CC(C)(C)c1cccc(C(C)(C)C)c1O
active

Then this compound: NC(=O)N(O)[C@@H]1C=C[C@H](Oc2cccc(Oc3ccc(F)cc3)c2)C1
inactive

Then this compound: O=[N+]([O-])c1ccc(O)cc1
inactive

Then this compound: CCc1ccc(CCOc2ccc(CC3SC(=O)NC3=O)cc2)nc1 (stereo not given)
inactive

Then this compound: C[C@@H]1C[C@H]2[C@@H]3CCC4=CC(=O)C=C[C@]4(C)[C@@]3(F)[C@@H](O)C[C@]2(C)[C@@]1(O)C(=O)COP(=O)(O)O
inactive

Then this compound: FC(F)(I)C(F)(F)C(F)(F)C(F)(F)C(F)(F)C(F)(F)I
inactive

Then this compound: CCCCC[C@H](O)CC(=O)CCc1ccc(O)c(OC)c1
inactive

Then this compound: CC(O)CO (stereo not given)
inactive

Then this compound: O=c1c(-c2ccc(O)cc2)coc2cc(O)ccc12
inactive

Then this compound: c1ccc2c(c1)Cc1ccccc1-2
inactive

Then this compound: OC1CCCCC1
inactive

Then this compound: CCCCCCCC(=O)O
inactive

Then this compound: CC(C)(C)c1ccc(O)c(C(C)(C)C)c1
inactive

Then this compound: C#C[C@]1(O)CC[C@H]2[C@@H]3CCC4=CC(=O)CC[C@@H]4[C@H]3CC[C@@]21C
inactive

Then this compound: CCCOC(=O)c1ccc(O)cc1
inactive

Then this compound: Cc1cc(CCN2CCN(c3nsc4ccccc34)CC2)cc2c1NC(=O)CC2(C)C
inactive

Then this compound: CCCCCCCCCCCCc1ccccc1S(=O)(=O)O
inactive

Then this compound: Cc1oc(-c2ccccc2)nc1CCOc1ccc(C[C@H](Nc2ccccc2C(=O)c2ccccc2)C(=O)O)cc1
inactive

Then this compound: CCC(C)(C)C1CCC(O)CC1 (stereo not given)
inactive

Then this compound: N#C[C@@H]1CC(F)(F)CN1C(=O)CNC1CC2CCC(C1)N2c1ncccn1 (stereo not given in full)
inactive

Then this compound: CC[C@H](c1ccc(O)cc1)[C@@H](CC)c1ccc(O)cc1
inactive

Then this compound: O=C1OC2(c3ccccc31)c1cc(Br)c(O)c(Br)c1Oc1c2cc(Br)c(O)c1Br
inactive

Then this compound: CCN(CC)CCNc1ccc(CNC=O)c2sc3ccc(OC)cc3c(=O)c12
inactive

Then this compound: CCCCCCC(=O)O
inactive

Then this compound: CCOC(=O)CC(O)(CC(=O)OCC)C(=O)OCC
inactive

Then this compound: COCC(C)OCC(C)O (stereo not given)
inactive

Then this compound: CC(O)C(=O)O (stereo not given)
inactive

Then this compound: CN(C)C=O
inactive

Then this compound: OC1CCC(C2CCCCC2)CC1 (stereo not given)
inactive

Then this compound: COc1cc(CCC(=O)CC(=O)CCc2ccc(O)c(OC)c2)ccc1O
inactive

Then this compound: c1ccc2cc3c(ccc4ccccc43)cc2c1
inactive

Then this compound: CN1CCN(c2ccccc2/C=C2\SCCN(c3ccc(Cl)c(Cl)c3)C2=O)CC1
inactive

Then this compound: CC(C)(C)c1cc(C(C)(C)C)c(O)c(C(C)(C)C)c1
inactive

Then this compound: CCCCOCCO
inactive

Then this compound: CCCOc1sc(C(=O)N2CCC(c3cc(CN)ccc3F)CC2)c(C)c1Br
inactive

Then this compound: ClC1=C(Cl)C(Cl)(Cl)C(Cl)=C1Cl
inactive

Then this compound: CCCCC(CC)COC(=O)CCCCC(=O)OCc1ccccc1 (stereo not given)
inactive

Then this compound: CC(=O)CC(C)(C)O
inactive

Then this compound: CCc1nn(C2CCCCC2)c2cc(C3(C#N)CCC(C(=O)O)CC3)ccc12 (stereo not given)
inactive

Then this compound: CCCCCCCCC(=O)O
inactive

Then this compound: CC1=C(/C=C/C(C)=C/C=C/C(C)=C/C(=O)O)C(C)(C)CCC1
inactive
